Cited source for all entries: patent US20210403591A1

Biological target: T1, purified mTfR1 mutant M2 (NAS) (mouse, UniProt Q62351 89-763)
T1 construct: also called G254A
T1 sequence (Q62351 other isoform, or with tags, fused parts or gaps mutant): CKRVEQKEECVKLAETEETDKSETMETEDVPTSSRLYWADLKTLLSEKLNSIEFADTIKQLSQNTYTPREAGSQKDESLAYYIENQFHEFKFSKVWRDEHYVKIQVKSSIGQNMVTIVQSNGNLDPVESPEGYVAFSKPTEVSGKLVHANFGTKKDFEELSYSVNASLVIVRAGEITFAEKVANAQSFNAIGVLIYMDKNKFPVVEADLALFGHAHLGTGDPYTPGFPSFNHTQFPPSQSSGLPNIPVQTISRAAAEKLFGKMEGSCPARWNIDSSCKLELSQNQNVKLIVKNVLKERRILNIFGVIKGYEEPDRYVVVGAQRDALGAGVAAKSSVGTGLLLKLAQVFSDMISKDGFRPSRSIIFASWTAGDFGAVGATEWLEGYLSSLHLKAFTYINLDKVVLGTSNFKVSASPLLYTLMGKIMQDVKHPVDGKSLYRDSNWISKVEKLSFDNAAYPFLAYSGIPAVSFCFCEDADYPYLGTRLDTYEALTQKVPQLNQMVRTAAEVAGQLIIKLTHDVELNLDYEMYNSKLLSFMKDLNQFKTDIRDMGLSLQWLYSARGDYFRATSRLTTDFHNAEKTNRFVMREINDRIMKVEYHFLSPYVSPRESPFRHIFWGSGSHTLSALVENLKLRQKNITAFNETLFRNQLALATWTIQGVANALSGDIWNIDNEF
Experiment: ELISA, coated purified mTfR-1
readout: pEC50
Answers are plain numbers, as −log10 of the molar value.

Check out these entries, answers already filled in.
# binder, pEC50
records = [
    ("Clone H variant 1 VNAR-hFc (Fc fusion, not shown: a dimerising Fc or GST, also called clone H var) ARVDQTPQTITKETGESLTINCVLRDSNCELSSTYWYRKKSGSTNEESISKGGRYVETVNSGSKSFSLRINDLVVEDSGTYRCNVVQWPSSSNGRYWCDVYGGGTAVTVNA", 8.33),
    ("Clone H variant 10 VNAR-hFc (Fc fusion, not shown: a dimerising Fc or GST, also called clone H var; 10) ARVDQTPQTITKETGESLTINCVLRDSNCELSSTYWYRKKSGSTNEESISKGGRYVETVNSGSKSFSLRINDLVVEDSGTYRCNVQQFPSWFNGRYWCDVYGGGTAVTVNA", 7.66),
    ("8D3 antibody (anti-mouse TfR-1 control; 8D3-hFc formatted antibody) (antibody, V domains shown) VH: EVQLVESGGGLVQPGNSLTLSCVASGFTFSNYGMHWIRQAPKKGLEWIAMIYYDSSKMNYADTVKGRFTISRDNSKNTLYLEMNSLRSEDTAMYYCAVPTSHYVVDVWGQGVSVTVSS VL: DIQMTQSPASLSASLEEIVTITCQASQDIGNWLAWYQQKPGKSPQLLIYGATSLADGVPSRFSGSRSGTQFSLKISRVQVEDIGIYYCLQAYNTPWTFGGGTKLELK", 9.48),
]

Shifting focus to the binder that follows.
Inquiry: Item under review: Clone H VNAR-hFc fusion (Fc fusion, not shown: a dimerising Fc or GST, bivalent VNAR-Fc) ARVDQTPQTITKETGESLTINCVLRDSNCELSSTYWYRKKSGSTNEESISKGGRYVETVNSGSKSFSLRINDLVVEDSGTYRCNVQQFPSSSNGRYWCDVYGGGTAVTVNA . Reported pEC50?
Reply text: 6.77
